Listed next: entries and their corresponding Brain volume of distribution (VD, % of Control) of [^3H]imperatorin.
System: [^3H]imperatorin brain uptake
Type: in vivo, SD rats
runConditions: compound 1 mM, ICAP 4 ml/min for 15 sec, pH 7.4

Previously resolved entries follow.
structurestring=CC[N+](CC)(CC)CC targetortestsystem="[^3H]imperatorin brain uptake" valuemeasured="103 ± 5 % of Control"
structurestring=C[N+](C)(C)C[C@H](O)CC(=O)[O-] targetortestsystem="[^3H]imperatorin brain uptake" valuemeasured="79.2 ± 5.3 % of Control"
structurestring=C[n+]1ccc(-c2ccccc2)cc1 targetortestsystem="[^3H]imperatorin brain uptake" valuemeasured="56.3 ± 5.8 % of Control"

Next molecule, please.
Q: Request the reported Brain volume of distribution (VD, % of Control) of [^3H]imperatorin associated with Nc1ccc(C(=O)NCC(=O)O)cc1
Ans: 94.4 ± 7.1 % of Control
